# measured.on: recombinant human MER (Homo sapiens, UniProt Q12866)
# Sequence (Q12866 21-999): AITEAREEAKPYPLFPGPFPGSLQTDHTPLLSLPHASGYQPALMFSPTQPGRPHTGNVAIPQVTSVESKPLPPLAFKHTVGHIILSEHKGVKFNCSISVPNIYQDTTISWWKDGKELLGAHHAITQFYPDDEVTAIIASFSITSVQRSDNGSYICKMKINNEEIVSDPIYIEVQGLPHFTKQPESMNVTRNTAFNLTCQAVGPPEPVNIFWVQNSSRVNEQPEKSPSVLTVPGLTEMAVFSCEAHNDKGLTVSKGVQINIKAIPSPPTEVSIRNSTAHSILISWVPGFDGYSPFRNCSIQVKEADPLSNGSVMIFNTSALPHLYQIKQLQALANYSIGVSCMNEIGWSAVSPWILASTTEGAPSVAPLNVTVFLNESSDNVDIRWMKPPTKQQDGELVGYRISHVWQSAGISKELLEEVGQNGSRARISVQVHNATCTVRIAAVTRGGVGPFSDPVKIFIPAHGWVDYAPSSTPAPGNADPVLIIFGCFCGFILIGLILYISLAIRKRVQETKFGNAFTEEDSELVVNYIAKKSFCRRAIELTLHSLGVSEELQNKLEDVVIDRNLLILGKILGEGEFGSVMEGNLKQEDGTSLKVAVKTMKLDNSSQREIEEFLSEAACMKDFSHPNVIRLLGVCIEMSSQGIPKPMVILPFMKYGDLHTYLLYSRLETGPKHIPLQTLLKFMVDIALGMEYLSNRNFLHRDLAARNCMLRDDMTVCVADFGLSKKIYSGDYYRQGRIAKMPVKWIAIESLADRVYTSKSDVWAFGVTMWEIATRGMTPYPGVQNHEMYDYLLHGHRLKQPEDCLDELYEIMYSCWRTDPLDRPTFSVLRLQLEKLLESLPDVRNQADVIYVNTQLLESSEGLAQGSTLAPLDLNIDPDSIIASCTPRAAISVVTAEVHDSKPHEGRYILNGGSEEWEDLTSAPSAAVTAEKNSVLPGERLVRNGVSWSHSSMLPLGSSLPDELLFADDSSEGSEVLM
# procedure.details: Biochemical potency, HTRF KinEASE-TK kinase assay
# experimental.setup: 1 nM MER, 700 μM ATP
parameter.measured: IC50

C[C@@H]1CCCN1[C@@]1(C)CCc2ccc(-c3cnc4[nH]cc(-c5ccc(-c6ccccn6)cc5)c4c3)cc2CC1 = 0.1 to 1 µM
CO[C@H]1C[C@@H](N[C@H]2CCc3ccc(-c4cnc5[nH]nc(-c6ccc(-c7ncccc7C)cc6)c5c4)cc3CC2)C1 = < 0.1 µM

Could you now consider this next molecule?
So, CN(C)C(=O)c1ccccc1-c1ccc(-c2n[nH]c3ncc(-c4ccc5c(c4)CC[C@@H](N4C6COCC4C6)CC5)cc23)cc1 ? Its IC50 was 0.1 to 1 µM

---

# measured.on: recombinant human TYRO3 (Homo sapiens)
# Sequence (Q06418 41-890): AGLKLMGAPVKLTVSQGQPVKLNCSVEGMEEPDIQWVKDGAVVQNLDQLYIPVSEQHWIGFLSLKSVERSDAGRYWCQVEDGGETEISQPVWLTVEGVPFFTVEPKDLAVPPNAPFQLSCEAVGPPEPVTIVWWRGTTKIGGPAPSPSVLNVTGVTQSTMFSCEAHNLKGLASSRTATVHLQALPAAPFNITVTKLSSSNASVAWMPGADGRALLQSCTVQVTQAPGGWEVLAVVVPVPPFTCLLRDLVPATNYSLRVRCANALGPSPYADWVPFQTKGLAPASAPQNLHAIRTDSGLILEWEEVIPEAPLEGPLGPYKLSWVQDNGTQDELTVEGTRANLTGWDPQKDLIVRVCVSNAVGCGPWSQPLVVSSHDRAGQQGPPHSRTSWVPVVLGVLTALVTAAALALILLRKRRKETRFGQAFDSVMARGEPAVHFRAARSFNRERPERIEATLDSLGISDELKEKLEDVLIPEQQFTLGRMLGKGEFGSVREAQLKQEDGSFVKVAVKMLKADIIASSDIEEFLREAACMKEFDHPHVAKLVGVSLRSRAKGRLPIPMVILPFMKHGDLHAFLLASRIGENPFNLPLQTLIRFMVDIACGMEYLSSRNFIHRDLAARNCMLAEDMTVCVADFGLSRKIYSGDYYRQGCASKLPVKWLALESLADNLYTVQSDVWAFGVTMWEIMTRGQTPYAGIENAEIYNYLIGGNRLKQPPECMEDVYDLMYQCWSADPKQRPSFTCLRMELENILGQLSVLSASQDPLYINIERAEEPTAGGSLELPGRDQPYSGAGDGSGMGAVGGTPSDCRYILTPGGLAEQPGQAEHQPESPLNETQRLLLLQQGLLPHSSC
# procedure.details: Biochemical potency, HTRF KinEASE-TK kinase assay
# experimental.setup: 1 nM TYRO3, 700 μM ATP
parameter.measured: IC50

Some solved entries appear below for comparison.
c1cnc(-c2ccc(-c3n[nH]c4ncc(-c5ccc6c(c5)CC[C@@H](N5C7COCC5C7)CC6)cc34)cc2)c(C2CC2)c1 = 0.1 to 1 µM
C[C@@H]1CCCN1[C@@]1(C)CCc2ccc(-c3cnc4[nH]cc(-c5ccc(-c6ccccn6)cc5)c4c3)cc2CC1 = 0.1 to 1 µM
Cc1ccnnc1-c1ccc(-c2n[nH]c3ncc(-c4ccc5c(c4)CC[C@@H](N4C6COCC4C6)CC5)cc23)cc1 = < 0.1 µM
Cc1nccnc1-c1ccc(-c2n[nH]c3ncc(-c4ccc5c(c4)CC[C@@H](N4C6COCC4C6)CC5)cc23)cc1 = 0.1 to 1 µM
CN(C(=O)C1CC1)c1cccnc1-c1ccc(-c2n[nH]c3ncc(-c4ccc5c(c4)CC[C@@H](N4C6COCC4C6)CC5)cc23)cc1 = < 0.1 µM
CS(=O)(=O)c1cccnc1-c1ccc(-c2n[nH]c3ncc(-c4ccc5c(c4)CC[C@@H](N4C6COCC4C6)CC5)cc23)cc1 = < 0.1 µM
O=C1CCCN1c1cccnc1-c1ccc(-c2c[nH]c3ncc(-c4ccc5c(c4)CC[C@@H](N4C6COCC4C6)CC5)cc23)cc1 = < 0.1 µM
C[C@H]1COC(=O)N1c1cccnc1-c1ccc(-c2n[nH]c3ncc(-c4ccc5c(c4)CC[C@@H](N4C6COCC4C6)CC5)cc23)cc1 = < 0.1 µM
COC[C@H]1CCN([C@H]2CCc3ccc(-c4cnc5[nH]nc(-c6ccc(-c7ncccc7C)cc6)c5c4)cc3CC2)C1 = < 0.1 µM
Cc1cc(-c2n[nH]c3ncc(-c4ccc5c(c4)CC[C@@H](N4C6COCC4C6)CC5)cc23)ccc1-c1ccccn1 = 0.1 to 1 µM

Record O=c1ccccn1-c1ccc(-c2n[nH]c3ncc(-c4ccc5c(c4)CC[C@@H](N4C6COCC4C6)CC5)cc23)cc1 . Reported IC50: > 1 µM

Looking up Cc1cnc(-c2ccc(-c3c[nH]c4ncc(-c5ccc6c(c5)CC[C@@H](N5C7COCC5C7)CC6)cc34)cc2)c(C)n1 , I see its IC50 listed as 0.1 to 1 µM

Sample c1cnc(-c2ccc(-c3c[nH]c4ncc(-c5ccc6c(c5)CC[C@@H](N5C7COCC5C7)CC6)cc34)cc2)c(C2CC2)c1 ; IC50 observed: 0.1 to 1 µM

For Cc1cccnc1-c1ccc(-c2n[nH]c3ncc(-c4ccc5c(c4)CC[C@@H](N4C[C@@H]6C[C@H]4CO6)CC5)cc23)cc1 the compound record lists IC50 as < 0.1 µM
